Experiment: Approximate solubility at 25° C.
Settings: ethanol, organic solvent or mixture, thermodynamic from solid

Compound	solubility at 1 day
Cc1c(C(=O)Nc2ccc(N3C[C@@H](C)O[C@@H](C)C3)nc2)cccc1-c1ccc(OC(F)(F)F)cc1.O=S(=O)(O)O [Sulfate, mono]	19.7 mg/mL

###

Test: Rat PK of suspension formulations, free form vs diphosphate salt
Assay type: in vivo
Conditions: in vivo, IV 3 mg/kg, mean, n = 2

Compound	AUC(0-inf) (µM·h)
Cc1c(C(=O)Nc2ccc(N3C[C@@H](C)O[C@@H](C)C3)nc2)cccc1-c1ccc(OC(F)(F)F)cc1 [Free base]	17.5

###

Test: physchem
Details: 25 °C, water, thermodynamic from solid, Solubility (approx. at 25° C., mg/ml)

Compound	solubility at 1 day / µg/mL
Cc1c(C(=O)Nc2ccc(N3C[C@@H](C)O[C@@H](C)C3)nc2)cccc1-c1ccc(OC(F)(F)F)cc1.Cl [Hydrochloride, mono]	5

###

Test: Approximate solubility at 25° C.
Settings: acetone, organic solvent or mixture, thermodynamic from solid
Measured Property: solubility at 1 day (µg/mL)

Compound	Measured Property	Readout Number
Cc1c(C(=O)Nc2ccc(N3C[C@@H](C)O[C@@H](C)C3)nc2)cccc1-c1ccc(OC(F)(F)F)cc1.O=S(=O)(O)O [Sulfate, mono]	solubility at 1 day	1700

###

Test: Rat PK of suspension formulations, free form vs diphosphate salt
Format: in vivo
Settings: in vivo, IV 3 mg/kg, mean, n = 2

Compound	Readout Unit	AUC(0-t)
Cc1c(C(=O)Nc2ccc(N3C[C@@H](C)O[C@@H](C)C3)nc2)cccc1-c1ccc(OC(F)(F)F)cc1 [Free base]	µM·h	17.5

###

Assay: physchem
Conditions: 25 °C, pH 1, simulated gastric fluid, thermodynamic from solid, Solubility (approx. at 25° C., mg/ml)
Measured Property: solubility at 1 day (µg/mL)

Compound	Readout Number
Cc1c(C(=O)Nc2ccc(N3C[C@@H](C)O[C@@H](C)C3)nc2)cccc1-c1ccc(OC(F)(F)F)cc1.Cl [Hydrochloride, mono]	2

###

Experiment: in vivo
Details: Wistar, rat, 10 mg/kg, mean tmax, Wistar rats, suspension
Measured Property: tmax (h)

Compound	Measured Property	Readout Number
Cc1c(C(=O)Nc2ccc(N3C[C@@H](C)O[C@@H](C)C3)nc2)cccc1-c1ccc(OC(F)(F)F)cc1.O=S(=O)(O)O [Sulfate, mono]	tmax	2.3

###

Experiment: Approximate solubility at 25° C.
Settings: water, thermodynamic from solid

Molecule	solubility at 1 day (µg/mL)
Cc1c(C(=O)Nc2ccc(N3C[C@@H](C)O[C@@H](C)C3)nc2)cccc1-c1ccc(OC(F)(F)F)cc1.O=S(=O)(O)O [Sulfate, mono]	7

###

Assay: Approximate solubility at 25° C.
Conditions: 0.1N HCl, pH 1, simulated gastric fluid, thermodynamic from solid
Measured Property: solubility at 1 day (µg/mL)

Molecule	Readout Number
Cc1c(C(=O)Nc2ccc(N3C[C@@H](C)O[C@@H](C)C3)nc2)cccc1-c1ccc(OC(F)(F)F)cc1.O=S(=O)(O)O [Sulfate, mono]	3

###

Assay: Rat PK of suspension formulations, free form vs diphosphate salt
Type: in vivo
Settings: in vivo, IV 3 mg/kg, mean, n = 2, read-out: C0/Cmax
Measured Property: Cmax (µM)

Molecule	Readout Unit	Readout Number
Cc1c(C(=O)Nc2ccc(N3C[C@@H](C)O[C@@H](C)C3)nc2)cccc1-c1ccc(OC(F)(F)F)cc1 [Free base]	µM	6.11

###

Experiment: Rat PK of suspension formulations, free form vs diphosphate salt
Type: in vivo
Settings: in vivo, 3.0 mg/kg PO dose in suspension, mean, read-out: C0/Cmax
Measured Property: Cmax (nM)

Compound	Measured Property	Readout Unit	Readout Number
Cc1c(C(=O)Nc2ccc(N3C[C@@H](C)O[C@@H](C)C3)nc2)cccc1-c1ccc(OC(F)(F)F)cc1 [Free base]	Cmax	nM	237

###

Experiment: Rat PK of suspension formulations, free form vs diphosphate salt
Assay type: in vivo
Settings: in vivo, 3.0 mg/kg PO dose in suspension, mean

Compound	Readout Unit	AUC(0-t)
Cc1c(C(=O)Nc2ccc(N3C[C@@H](C)O[C@@H](C)C3)nc2)cccc1-c1ccc(OC(F)(F)F)cc1 [Free base]	µM·h	0.51

###

Assay: Approximate solubility at 25° C.
Conditions: 2-propanol, organic solvent or mixture, thermodynamic from solid
Measured Property: solubility at 1 day (µg/mL)

Compound	Readout Unit	Readout Number
Cc1c(C(=O)Nc2ccc(N3C[C@@H](C)O[C@@H](C)C3)nc2)cccc1-c1ccc(OC(F)(F)F)cc1.O=S(=O)(O)O [Sulfate, mono]	µg/mL	4000

###

Assay: Approximate solubility at 25° C.
Conditions: phosphate buffer, pH 6.8, aqueous buffer, thermodynamic from solid
Measured Property: solubility at 1 day (µg/mL)

Molecule	Measured Property	Readout Number
Cc1c(C(=O)Nc2ccc(N3C[C@@H](C)O[C@@H](C)C3)nc2)cccc1-c1ccc(OC(F)(F)F)cc1.O=S(=O)(O)O [Sulfate, mono]	solubility at 1 day	2

###

Experiment: Approximate solubility at 25° C.
Conditions: methanol, organic solvent or mixture, thermodynamic from solid
Measured Property: solubility at 1 day

Compound	Measured Property	Result
Cc1c(C(=O)Nc2ccc(N3C[C@@H](C)O[C@@H](C)C3)nc2)cccc1-c1ccc(OC(F)(F)F)cc1.O=S(=O)(O)O [Sulfate, mono]	solubility at 1 day	24.4 mg/mL
